Would you kindly list pIC50 for each of these compounds?
biological target: Gag-Pol polyprotein (Human immunodeficiency virus type 1 group M subtype B (isolate HXB2), UniProt P04585); experiment: ST Inhibitory Assay
Lab note — pIC50 values are minus log10 of concentrations in M.

Which value of pIC50 has been reported for `O=C(/C=C/c1ccc(O)c(O)c1)Nc1ccc(S(=O)(=O)Nc2ccc(F)c(Cl)c2)cc1` in the records?
5.40

Consider next the compound `O=C(Nc1ccc(S(=O)(=O)Nc2ccc([N+](=O)[O-])cc2)cc1)c1cc(O)c(O)c(O)c1` in the same way.
5.52

Can you handle `CC(=O)Oc1ccc(/C=C/C(=O)Nc2ccc(S(=O)(=O)Nc3cc(C)cc(C)c3)cc2)cc1OC(C)=O` next?
4.80

Item: `O=C(Nc1ccc(S(=O)(=O)Nc2ccc(Cl)c(Cl)c2)cc1)c1cc(O)c(O)c(O)c1`
5.77

And then `O=C(Nc1ccc(S(=O)(=O)Nc2ccc(Br)cc2)cc1)c1cc(O)c(O)c(O)c1` , what is it?
6.15

`O=C(/C=C/c1ccc(O)c(O)c1)Nc1ccc(S(=O)(=O)Nc2cccc(Cl)c2F)cc1` ?
4.85

Also `O=C(/C=C/c1ccc(O)c(O)c1)Nc1ccc(S(=O)(=O)Nc2ccccc2Br)cc1` ?
5.05

Next up: `O=C(Nc1ccc(S(=O)(=O)NCc2ccc(Cl)cc2)cc1)c1cc(O)c(O)c(O)c1`
5.70

What do we get for `Cc1cc(C)cc(NS(=O)(=O)c2ccc(NC(=O)c3cc(O)c(O)c(O)c3)cc2)c1` ?
5.60

Let us now turn to `CC(=O)Oc1ccc(/C=C/C(=O)Nc2ccc(S(=O)(=O)Nc3ccc(F)c(F)c3)cc2)cc1OC(C)=O`
4.96

# repeat for `CCCCc1ccc(NS(=O)(=O)c2ccc(NC(=O)c3cc(O)c(O)c(O)c3)cc2)cc1`
5.60

Item: `CC(=O)Oc1cc(C(=O)Nc2ccc(S(=O)(=O)Nc3cccc(Cl)c3F)cc2)cc(OC(C)=O)c1OC(C)=O`
5.70

// next record `O=C(Nc1ccc(S(=O)(=O)Nc2ccc(F)cc2)cc1)c1cc(O)c(O)c(O)c1`
6.05

Okay, and `O=C(Nc1ccc(S(=O)(=O)Nc2ccc(Cl)cc2)cc1)c1cc(O)c(O)c(O)c1` ?
5.70

Same lookup for `O=C(/C=C/c1ccc(O)c(O)c1)Nc1ccc(S(=O)(=O)NCc2ccc(F)cc2)cc1` , please.
5.05

And `O=C(Nc1ccc(S(=O)(=O)Nc2cccc(Cl)c2F)cc1)c1cc(O)c(O)c(O)c1` ?
6.10

What about this compound? `Cc1ccc(NS(=O)(=O)c2ccc(NC(=O)c3cc(O)c(O)c(O)c3)cc2)cc1C`
5.10

And `O=C(/C=C/c1ccc(O)c(O)c1)Nc1ccc(S(=O)(=O)Nc2ccc(Br)cc2)cc1` ?
5.10

---

Molecular target: Gag-Pol polyprotein (Human immunodeficiency virus type 1 group M subtype B (isolate HXB2), UniProt P04585)
Assay: 3'-P Inhibitory Assay
Experimental: Cleavage of a dinucleotide from each 3'-end of viral cDNA. All biological assays were performed essentially as previously described [Dayam et al., J. Med. Chem., 51:1136-1144].
pIC50: −log10 of the molar value.
// FALSE strictly below 5 in pIC50; TRUE otherwise

// inclusive: pIC50 at least 5? input: `CC(=O)Oc1ccc(/C=C/C(=O)Nc2ccc(S(=O)(=O)Nc3cccc(Cl)c3F)cc2)cc1OC(C)=O`
FALSE

Queued: `Cc1cc(C)cc(NS(=O)(=O)c2ccc(NC(=O)/C=C/c3ccc(O)c(O)c3)cc2)c1`
TRUE

What do you get for `O=C(Nc1ccc(S(=O)(=O)Nc2ccc(Cl)cc2)cc1)c1cc(O)c(O)c(O)c1` ?
TRUE

And for `Cc1ccccc1NS(=O)(=O)c1ccc(NC(=O)c2cc(O)c(O)c(O)c2)cc1` ?
TRUE

Also check `O=C(Nc1ccc(S(=O)(=O)Nc2ccc(Br)cc2)cc1)c1cc(O)c(O)c(O)c1`
TRUE

How about this molecule: `O=C(Nc1ccc(S(=O)(=O)Nc2cccc(Br)c2)cc1)c1ccc(O)c(O)c1`
FALSE

And the next one, `O=C(/C=C/c1ccc(O)c(O)c1)Nc1ccc(S(=O)(=O)Nc2cccc(Cl)c2F)cc1` ?
FALSE

How about `O=C(Nc1ccc(S(=O)(=O)Nc2ccc([N+](=O)[O-])cc2)cc1)c1cc(O)c(O)c(O)c1` ?
TRUE

---

molecular target: Gag-Pol polyprotein (Human immunodeficiency virus type 1 group M subtype B (isolate HXB2), UniProt P04585); test: ST Inhibitory Assay
Values of IC50 strictly less than 4 µM map to Criterion met, and values of at least 4 µM map to Criterion not met.

Strictly below 4 µM in IC50? `O=C(Nc1ccc(S(=O)(=O)Nc2ccccc2)cc1)c1cc(O)c(O)c(O)c1`
Criterion met

Follow-up item: `O=C(/C=C/c1ccc(O)c(O)c1)Nc1ccc(S(=O)(=O)Nc2ccc(F)c(F)c2)cc1`
Criterion not met

And then `COc1ccc(NS(=O)(=O)c2ccc(NC(=O)c3cc(O)c(O)c(O)c3)cc2)cc1` , what is it?
Criterion not met

Ok, now `O=C(/C=C/c1ccc(O)c(O)c1)Nc1ccc(S(=O)(=O)NCCc2ccc(F)cc2)cc1`
Criterion not met

Another compound to check: `CC(=O)Oc1ccc(/C=C/C(=O)Nc2ccc(S(=O)(=O)Nc3ccc(Cl)c(Cl)c3)cc2)cc1OC(C)=O`
Criterion not met

---

target: Gag-Pol polyprotein (Human immunodeficiency virus type 1 group M subtype B (isolate HXB2)); test: 3'-P Inhibitory Assay
Quantity Kind: pIC50
Lab note — pIC50 values are minus log10 of concentrations in M.

Return reported pIC50; argument: `O=C(Nc1ccc(S(=O)(=O)NCc2ccc(Cl)cc2)cc1)c1cc(O)c(O)c(O)c1`
5.30

Lookup `O=C(Nc1ccc(S(=O)(=O)Nc2ccc(Cl)c(Cl)c2)cc1)c1cc(O)c(O)c(O)c1`
5.30

Next entry: `O=C(Nc1ccc(S(=O)(=O)Nc2ccccc2Br)cc1)c1cc(O)c(O)c(O)c1`
5.30

Proceed to `O=C(Nc1ccc(S(=O)(=O)Nc2ccccc2)cc1)c1cc(O)c(O)c(O)c1`
5.15

Next: `CCOc1ccc(NS(=O)(=O)c2ccc(NC(=O)/C=C/c3ccc(O)c(O)c3)cc2)cc1`
4.46

How about `CCCCc1ccc(NS(=O)(=O)c2ccc(NC(=O)/C=C/c3ccc(O)c(O)c3)cc2)cc1` ?
4.60

Please answer likewise for `CC(=O)Oc1cc(C(=O)Nc2ccc(S(=O)(=O)Nc3ccccc3)cc2)cc(OC(C)=O)c1OC(C)=O`
5.10

Further, for `O=C(/C=C/c1ccc(O)c(O)c1)Nc1ccc(S(=O)(=O)Nc2ccc(F)cc2)cc1` ?
5.10

---

molecular target: Gag-Pol polyprotein (Human immunodeficiency virus type 1 group M subtype B (isolate HXB2), UniProt P04585); test: 3'-P Inhibitory Assay
Hi! Just check whether IC50 is below 10 µM. Below gives Met, equal or above gives Not met.

Problem: For the compound `O=C(Nc1ccc(S(=O)(=O)Nc2ccccc2)cc1)c1ccc(O)c(O)c1` , is IC50 under 10 µM?
Not met

Next: `CC(=O)Oc1cc(C(=O)Nc2ccc(S(=O)(=O)Nc3ccccc3Br)cc2)cc(OC(C)=O)c1OC(C)=O`
Not met

// query: `O=C(Nc1ccc(S(=O)(=O)Nc2ccc(F)cc2)cc1)c1cc(O)c(O)c(O)c1`
Met

Cool, now `COc1ccc(NS(=O)(=O)c2ccc(NC(=O)c3cc(O)c(O)c(O)c3)cc2)cc1`
Met

Next compound up: `O=C(/C=C/c1ccc(O)c(O)c1)Nc1ccc(S(=O)(=O)Nc2ccc(F)c(Br)c2)cc1`
Met

Also need `O=C(/C=C/c1ccc(O)c(O)c1)Nc1ccc(S(=O)(=O)Nc2ccc(F)c(Cl)c2)cc1` , thanks.
Met

Moving on to the next compound: `Cc1cc(C)cc(NS(=O)(=O)c2ccc(NC(=O)c3cc(O)c(O)c(O)c3)cc2)c1`
Met

Same lookup for `O=C(/C=C/c1ccc(O)c(O)c1)Nc1ccc(S(=O)(=O)NCc2ccc(F)cc2)cc1` , please.
Not met

And then `O=C(/C=C/c1ccc(O)c(O)c1)Nc1ccc(S(=O)(=O)Nc2ccc(F)c(F)c2)cc1` , what is it?
Not met

And then `O=C(/C=C/c1ccc(O)c(O)c1)Nc1ccc(S(=O)(=O)Nc2ccc(Cl)c(Cl)c2)cc1` , what is it?
Not met

Proceed to `O=C(/C=C/c1ccc(O)c(O)c1)Nc1ccc(S(=O)(=O)Nc2cccc(Br)c2)cc1`
Not met

Record: `O=C(Nc1ccc(S(=O)(=O)NCc2ccc(F)cc2)cc1)c1cc(O)c(O)c(O)c1`
Met

Also check `O=C(Nc1ccc(S(=O)(=O)Nc2cccc(Cl)c2F)cc1)c1cc(O)c(O)c(O)c1`
Met

// same read-out, input: `CC(=O)Oc1ccc(/C=C/C(=O)Nc2ccc(S(=O)(=O)Nc3ccc(F)c(F)c3)cc2)cc1OC(C)=O`
Not met

Please give the result for `O=C(Nc1ccc(S(=O)(=O)Nc2cccc(Br)c2)cc1)c1cc(O)c(O)c(O)c1` too.
Met

Record: `O=C(/C=C/c1ccc(O)c(O)c1)Nc1ccc(S(=O)(=O)Nc2ccccc2)cc1`
Not met

Check `CCCCc1ccc(NS(=O)(=O)c2ccc(NC(=O)c3cc(O)c(O)c(O)c3)cc2)cc1` too.
Met

Also `CC(=O)Oc1cc(C(=O)Nc2ccc(S(=O)(=O)Nc3cccc(Cl)c3F)cc2)cc(OC(C)=O)c1OC(C)=O` ?
Met
